# Test system: SK-MEL-5
# assayComment: NCI tumour cell line growth inhibition, 48 h
The source made the active and inactive calls. No stated cut-off is given here; in the data, active = GI50 up to about 1.1 µM and inactive = higher. Where a SMILES comes first, the peptide text is derived from it. [ ]: non-standard residue; d: D form. Phe(4-NO2) = N[CH](Cc1ccc([N+](=O)[O-])cc1)C(=O)O

{"columns": ["molecule", "GI50"],
 "data": [
  ["Cc1cc(Cl)ccc1NC1=NC(=O)C(CC(=O)Nc2cccc(Cl)c2)S1 (stereo not drawn)", "24.9 µM (inactive)"],
  ["c1ccc(COC2(OCc3ccccc3)CC3OC2C2NN=NC32)cc1 (stereo not drawn)", "17.1 µM (inactive)"],
  ["CC(c1ccccc1)n1c2ccccc2c2c(N)ncnc21 (stereo not drawn)", "19.5 µM (inactive)"],
  ["CSc1nncc2[nH]cnc12", "> 100 µM (inactive)"],
  ["C=C1C(=O)O[C@@H]2C[C@@H](C)[C@@H]3C=CC(=O)[C@@]3(C)[C@@H](O)[C@H]12", "1.3 µM (inactive)"],
  ["CC1(C)CC(=O)C(CC2C(=O)c3ccccc3C2=O)C(=O)C1", "> 100 µM (inactive)"],
  ["O=c1/c(=C/c2cccc3ccccc23)sc2nc3ccccc3n12", "> 100 µM (inactive)"],
  ["COc1c2occc2c(OC)c2c(=O)c(S(=O)(=O)NC(=O)Nc3ccc(Cl)cc3)coc12", "> 10 µM (inactive)"],
  ["Cc1cc(NS(=O)(=O)c2ccc(NC(=O)c3ccc(Cl)c4c(Nc5ccc(S(N)(=O)=O)cc5)c5ccccc5nc34)cc2)no1", "18.2 µM (inactive)"],
  ["CCC12CCCN3CCc4c(n(c5ccccc45)C(O)(C(=O)OC)C1)C32 (stereo not drawn)", "> 100 µM (inactive)"],
  ["Cn1ccnc1C(O)(c1nccn1C)c1nccn1C", "> 100 µM (inactive)"],
  ["COc1ccc2c(c1)C1(C=N2)CCN(C(C)=O)CC1", "> 100 µM (inactive)"],
  ["COC(=O)CCC(NC(=O)C(CCC(=O)OC)NC(=O)C(CCC(=O)OC)NC(=O)C(CCC(=O)OC)NC(=O)C(CCC(=O)OC)NC(=O)C(Cc1ccc([N+](=O)[O-])cc1)NC(=O)C(CCC(=O)OC)NC(=O)C(CCC(=O)OC)NC(=O)C(CCC(=O)OC)NC(=O)C(CCC(=O)OC)NC(=O)C(CCC(=O)OC)NC(C)=O)C(N)=O (stereo not drawn) (Ac-E(OMe)E(OMe)E(OMe)E(OMe)E(OMe)[Phe(4-NO2)]E(OMe)E(OMe)E(OMe)E(OMe)E(OMe)-NH2; configuration not given here)", "26.1 µM (inactive)"]
]}
